# Test system: HIV-1ADA
# Assay Protocol: Half-maximum effective concentration (EC50) assay, HIV-1 RT activity in MDM
# Format: cell-based
# Settings: HIV-1ADA MOI 0.1, 10 days
pEC50: −log10 of the molar value.
Observed Property: pEC50

INSERT INTO assay_data (molecule, observed_property, numeric_value) VALUES
  ('CCCCCCCCCCCCCC(=O)Oc1c2n(cc(C(=O)NCc3ccc(F)cc3F)c1=O)CC1OCC(C)N1C2=O (centres unmarked)', 'pEC50', 7.47),
  ('CCCCCCCCCCCCCCCCCCCCCC(=O)Oc1c2n(cc(C(=O)NCc3ccc(F)cc3F)c1=O)CC1OCC(C)N1C2=O (centres unmarked)', 'pEC50', 7.29);

This collection of values is drawn from patent US12168013B2.
